From: patent US20250206732A1

Kindly state Dmax for each of the entries shown.
target: AsPC-1 HiBiT-KRASG12D (Homo sapiens, UniProt P01116, G12D); construct: insert the HiBiT tag onto the N-terminus of one or more of the endogenous KRAS alleles; endogenous in cells; host or cells: AsPC-1 (ATCC CRL-1682), CRISPR-Cas9 knock-in clone, one tagged allele; experiment: HiBiT degradation assay (G12D), AsPC-1 HiBiT-KRASG12D cells; assay type: cell-based; conditions: ASPC1, AsPC-1 HiBiT-KRASG12D cells, 24 hours treatment, maximum degradation observed
Sequence (P01116 1-188 isoform P01116-2 G12D): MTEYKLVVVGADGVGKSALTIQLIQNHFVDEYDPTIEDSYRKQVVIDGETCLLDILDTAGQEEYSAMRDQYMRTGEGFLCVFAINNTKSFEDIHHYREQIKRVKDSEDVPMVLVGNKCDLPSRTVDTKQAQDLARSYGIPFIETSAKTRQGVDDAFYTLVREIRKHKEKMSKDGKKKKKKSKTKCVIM

Note Dmax for the compound shown: CCc1cccc2cc(O)cc(-c3ncc4c(N5CC6CCC(C5)N6)nc(OCCN5CCC(CCOc6cc([C@H](C(=O)N7C[C@H](O)C[C@H]7C(=O)N[C@@H](C)c7ccc(-c8scnc8C)cc7)C(C)C)on6)CC5)nc4c3F)c12
80 to 100%

Identify the reported Dmax for the following entry. CCc1cccc2cc(O)cc(-c3ncc4c(N5CC6CCC(C5)N6)nc(OC[C@@H]5CC[C@H](COC(=O)N6CCN(c7cc([C@H](C(=O)N8C[C@H](O)C[C@H]8C(=O)N[C@@H](C)c8ccc(-c9scnc9C)cc8)C(C)C)on7)CC6)N5C)nc4c3F)c12
80 to 100%

Hello, please tell me recorded Dmax for this one: CCc1cccc2cc(O)cc(-c3ncc4c(N5CC6CCC(C5)N6)nc(OCCN5CCC(F)(CN6CCN(c7cc([C@H](C(=O)N8C[C@H](O)C[C@H]8C(=O)N[C@@H](C)c8ccc(-c9ccnn9C)cc8)C(C)C)on7)CC6)CC5)nc4c3F)c12
80 to 100%

Give me measured Dmax, please, for this compound: CCc1cccc2cc(O)cc(-c3ncc4c(N5CC6CCC(C5)N6)nc(N5CC(N6CCC(CC7CN(c8cc([C@H](C(=O)N9C[C@H](O)C[C@H]9C(=O)N[C@@H](C)c9ccc(-c%10scnc%10C)cc9)C(C)C)on8)C7)CC6)C5)nc4c3F)c12
20 to 60%

Fill in reported Dmax for this entry: CCc1cccc2cc(O)cc(-c3ncc4c(N5CC6CCC(C5)N6)nc(OCCN5CCC(CN6CCN(c7cnc(C(=O)N[C@H](C(=O)N8C[C@H](O)C[C@H]8C(=O)N[C@@H](C)c8ccc(-c9scnc9C)cc8)C(C)(C)C)cn7)CC6)CC5)nc4c3F)c12
60 to 80%

Tell me Dmax reported for CCc1cccc2cc(O)cc(-c3ncc4c(N5CC6CCC(C5)N6)nc(OCCN5CCC(F)(CN6CCN(c7cc([C@H](C(=O)N8C[C@H](O)C[C@H]8C(=O)N[C@@H](C)c8ccc(-c9scnc9C)cc8)C(C)C)on7)C[C@@H]6C)CC5)nc4c3F)c12
80 to 100%

Return the recorded Dmax value; entry: C#Cc1c(F)ccc2cc(O)cc(-c3ncc4c(N5CC6CCC(C5)N6)nc(OCCN5CCC(COc6cc([C@H](C(=O)N7C[C@H](O)C[C@H]7C(=O)N[C@@H](C)c7ccc(-c8scnc8C)cc7)C(C)C)on6)CC5)nc4c3F)c12
80 to 100%

Return Dmax (reported value) for this compound: Cc1ncsc1-c1ccc([C@H](C)NC(=O)[C@@H]2C[C@@H](O)CN2C(=O)[C@@H](NC(=O)COCC2CCN(CCOc3nc(N4CC5CCC(C4)N5)c4cnc(-c5cc(O)cc6ccccc56)c(F)c4n3)CC2)C(C)(C)C)cc1
20 to 60%

Given C#Cc1c(F)ccc2cc(O)cc(-c3ncc4c(N5CC6CCC(C5)N6)nc(OCCN5CC[C@H]6CN(c7cc([C@H](C(=O)N8C[C@H](O)C[C@H]8C(=O)N[C@@H](C)c8ccc(-c9scnc9C)cc8)C(C)C)on7)C[C@H]6C5)nc4c3F)c12 , respond with its Dmax.
80 to 100%

Note Dmax for the compound shown: Cc1ncsc1-c1ccc([C@H](C)NC(=O)[C@@H]2C[C@@H](O)CN2C(=O)[C@@H](c2cc(OCC3CCN(CCOc4nc(N5CC6CCC(C5)N6)c5cnc(-c6cc(O)cc7ccccc67)c(F)c5n4)CC3)no2)C(C)C)cc1
20 to 60%

Output Dmax of C#Cc1c(F)ccc2cc(O)cc(-c3ncc4c(N5CC6CCC(C5)N6)nc(OC[C@]56CCCN5[C@H](COC(=O)N5CCN(c7cc([C@H](C(=O)N8C[C@H](O)C[C@H]8C(=O)N[C@@H](C)c8ccc(-c9scnc9C)cc8)C(C)C)on7)CC5)CC6)nc4c3F)c12
80 to 100%

Provide Dmax value for the following compound: CCc1cccc2cc(O)cc(-c3ncc4c(N5CCCCCC5)nc(OC[C@@H]5CC[C@@H](COC(=O)N6CC(Oc7cc([C@H](C(=O)N8C[C@H](O)C[C@H]8C(=O)N[C@@H](C)c8ccc(-c9scnc9C)cc8)C(C)C)on7)C6)N5C)nc4c3F)c12
60 to 80%

Identify measured Dmax associated with CCc1cccc2cc(O)cc(-c3ncc4c(N5CC6CCC(C5)N6)nc(OC[C@@]56CCCN5[C@H](CN5CCC(COc7cc([C@@H](C(=O)N8C[C@H](O)C[C@H]8C(=O)N[C@@H](C)c8ccc(-c9scnc9C)cc8)C(C)C)on7)CC5)CC6)nc4c3F)c12
20 to 60%

Find the measured Dmax of CCc1cccc2cc(O)cc(-c3ncc4c(N5CC6CCC(C5)N6)nc(OCCN5CCC(CC6CN(c7cc([C@@H](C(=O)N8C[C@H](O)C[C@H]8C(=O)N[C@@H](C)c8ccc(-c9ccnn9C)cc8)C(C)C)on7)C6)CC5)nc4c3F)c12 (single isomer, unassigned) and report it.
60 to 80%

Report Dmax, nothing else, for this compound: CCc1cccc2cccc(-c3ncc4c(N5CC6CCC(C5)N6)nc(OC[C@@]56CCCN5[C@H](COC(=O)N5CCN(c7cc([C@H](C(=O)N8C[C@H](O)C[C@H]8C(=O)N[C@@H](C)c8ccc(-c9scnc9C)cc8)C(C)C)on7)CC5)CC6)nc4c3F)c12
80 to 100%
